system_under_test: Polymorphonuclear leukocyte elastase from human sputum (EPC Co.; Funakoshi Yakuhin) (human, UniProt P08246)
method_notes: enzyme inhibition with MeO-Suc-Ala-Ala-Pro-Val-pNA, Ki by the Henderson method

# binder, Ki / pM
data = [
    ("RRKPGKCPVTYGQCLMLNPPNFCEMDGQCKRDLKCCMGMCGKSCVSPVKA (other) [(Arg^58 -Ala^107) SLPI]", 90),
    ("Human secretory leukoprotease inhibitor (SLPI) (other) SGKSFKAGVCPPKKSAQCLRYKKPECQSDWQCPGKKRCCPDTCGIKCLDPVDTPNPTRRKPGKCPVTYGQCLMLNPPNFCEMDGQCKRDLKCCMGMCGKSCVSPVKA", 80),
]
